Tested on: THRa homodimer (NR concentration 90 nM)
assayComment: PBM binding z-score (relative to random genomic background probes); higher = stronger binding; sequences stand for … in GC…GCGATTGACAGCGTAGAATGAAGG
Overview of reported PBM binding z-score across a group of sequences:
readout: PBM binding z-score

- sequenceEntry: "TAGCCTAGGTCATTCAGGTGCCAGTATAGAAAGC"
  targetOrSystem: "THRa homodimer (NR concentration 90 nM)"
  dataValue: 1.06
- sequenceEntry: "TCTTGTAGAGCAAGCAGGTTAAGAAAGCCTGAGT"
  targetOrSystem: "THRa homodimer (NR concentration 90 nM)"
  dataValue: -1.05
- sequenceEntry: "CGTCAAAGTTCAAGATAACGTAACAGAAAGCAGC"
  targetOrSystem: "THRa homodimer (NR concentration 90 nM)"
  dataValue: -0.18
- sequenceEntry: "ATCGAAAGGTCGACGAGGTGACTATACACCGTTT"
  targetOrSystem: "THRa homodimer (NR concentration 90 nM)"
  dataValue: 1.27
- sequenceEntry: "CGTCAAAGTTCAAGGTATCGTAACAGAAAGCAGC"
  targetOrSystem: "THRa homodimer (NR concentration 90 nM)"
  dataValue: -0.0941
- sequenceEntry: "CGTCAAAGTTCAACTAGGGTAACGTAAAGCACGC"
  targetOrSystem: "THRa homodimer (NR concentration 90 nM)"
  dataValue: 0.583
- sequenceEntry: "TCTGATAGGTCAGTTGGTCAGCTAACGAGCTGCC"
  targetOrSystem: "THRa homodimer (NR concentration 90 nM)"
  dataValue: -0.367
- sequenceEntry: "CAAACTACGTCACAGAGGTCAAAGTCCGTGCGTA"
  targetOrSystem: "THRa homodimer (NR concentration 90 nM)"
  dataValue: 1.47
- sequenceEntry: "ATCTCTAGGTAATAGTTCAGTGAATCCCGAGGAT"
  targetOrSystem: "THRa homodimer (NR concentration 90 nM)"
  dataValue: 0.701
- sequenceEntry: "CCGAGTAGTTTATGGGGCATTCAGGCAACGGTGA"
  targetOrSystem: "THRa homodimer (NR concentration 90 nM)"
  dataValue: 0.0882
- sequenceEntry: "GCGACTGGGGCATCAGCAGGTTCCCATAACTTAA"
  targetOrSystem: "THRa homodimer (NR concentration 90 nM)"
  dataValue: -0.272
- sequenceEntry: "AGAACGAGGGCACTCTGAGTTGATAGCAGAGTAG"
  targetOrSystem: "THRa homodimer (NR concentration 90 nM)"
  dataValue: -0.153
- sequenceEntry: "ATACCAAGGTGCTCGTGAGGTCGTTGATACTAAC"
  targetOrSystem: "THRa homodimer (NR concentration 90 nM)"
  dataValue: 2.12
- sequenceEntry: "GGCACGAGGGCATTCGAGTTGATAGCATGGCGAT"
  targetOrSystem: "THRa homodimer (NR concentration 90 nM)"
  dataValue: -0.251
- sequenceEntry: "CAAACTAGGTCAAGGACAAAGTCGGTTTGTGCCA"
  targetOrSystem: "THRa homodimer (NR concentration 90 nM)"
  dataValue: 2.25
- sequenceEntry: "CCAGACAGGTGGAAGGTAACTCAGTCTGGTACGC"
  targetOrSystem: "THRa homodimer (NR concentration 90 nM)"
  dataValue: -0.144
- sequenceEntry: "AGAATGAGGTTATAAGTAGATCAGGGAAGAAAGT"
  targetOrSystem: "THRa homodimer (NR concentration 90 nM)"
  dataValue: 0.689
- sequenceEntry: "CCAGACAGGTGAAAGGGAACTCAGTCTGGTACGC"
  targetOrSystem: "THRa homodimer (NR concentration 90 nM)"
  dataValue: -0.374
- sequenceEntry: "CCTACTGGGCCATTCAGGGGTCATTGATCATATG"
  targetOrSystem: "THRa homodimer (NR concentration 90 nM)"
  dataValue: 0.962
- sequenceEntry: "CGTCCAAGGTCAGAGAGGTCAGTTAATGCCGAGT"
  targetOrSystem: "THRa homodimer (NR concentration 90 nM)"
  dataValue: 2.8
- sequenceEntry: "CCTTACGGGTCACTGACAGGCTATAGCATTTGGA"
  targetOrSystem: "THRa homodimer (NR concentration 90 nM)"
  dataValue: -0.00278
- sequenceEntry: "TGAATGAGGTTCTAAGATCAGGGAACGTTGCAAA"
  targetOrSystem: "THRa homodimer (NR concentration 90 nM)"
  dataValue: -0.86
- sequenceEntry: "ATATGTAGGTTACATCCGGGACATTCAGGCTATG"
  targetOrSystem: "THRa homodimer (NR concentration 90 nM)"
  dataValue: 1.46
- sequenceEntry: "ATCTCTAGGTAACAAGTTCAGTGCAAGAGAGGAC"
  targetOrSystem: "THRa homodimer (NR concentration 90 nM)"
  dataValue: 1.03
- sequenceEntry: "TCTTGAAGATCAGCAGGTTAAGAAAGCTGGCCAA"
  targetOrSystem: "THRa homodimer (NR concentration 90 nM)"
  dataValue: -1.05
- sequenceEntry: "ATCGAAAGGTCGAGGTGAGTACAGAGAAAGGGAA"
  targetOrSystem: "THRa homodimer (NR concentration 90 nM)"
  dataValue: 0.817
- sequenceEntry: "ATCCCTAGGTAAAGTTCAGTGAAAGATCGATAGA"
  targetOrSystem: "THRa homodimer (NR concentration 90 nM)"
  dataValue: 0.22
- sequenceEntry: "GCTATTAGTTGGAAGGGCAACCGAATGATTCTCG"
  targetOrSystem: "THRa homodimer (NR concentration 90 nM)"
  dataValue: -0.242
- sequenceEntry: "AGAATGAGGTTATACGTAGATCACGGAAGAAAGT"
  targetOrSystem: "THRa homodimer (NR concentration 90 nM)"
  dataValue: 0.348
- sequenceEntry: "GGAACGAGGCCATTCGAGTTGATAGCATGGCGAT"
  targetOrSystem: "THRa homodimer (NR concentration 90 nM)"
  dataValue: -0.443
- sequenceEntry: "CCAATTAGTTGACCATAAGGGCAACCGAAGCTCG"
  targetOrSystem: "THRa homodimer (NR concentration 90 nM)"
  dataValue: 1.5
- sequenceEntry: "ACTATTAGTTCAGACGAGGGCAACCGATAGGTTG"
  targetOrSystem: "THRa homodimer (NR concentration 90 nM)"
  dataValue: 0.384
